From: patent US7491705B2

Recorded measurements of Cmax, one per entry
protocol_summary: Transportation rate into blood after oral administration
Assay type: in vivo, Macaca fascicularis (crab-eating monkey)
run_parameters: cynomolgus monkey, 10 mg/kg, Macaca fascicularis, plasma
Report as a plain number; the unit nM is understood.

Answered examples (3):
structure_smiles	Cmax [nM]
COCCOCCOCCOC(=O)N[C@@H](CC(C)C)C(=O)N[C@@H](Cc1ccccc1)C(=O)C(=O)NC1CC1	660
COCCOC(=O)N[C@@H](CC(C)C)C(=O)N[C@@H](Cc1ccccc1)C(=O)C(=O)NC1CC1	1200
COCCOCCOC(=O)N[C@@H](CC(C)C)C(=O)N[C@@H](Cc1ccccc1)C(=O)C(=O)NC1CC1	1100

Next molecule, Cmax to be filled in.
Form field Cmax, entry `COCCOCCOCCOCCOC(=O)N[C@@H](CC(C)C)C(=O)N[C@@H](Cc1ccccc1)C(=O)C(=O)NC1CC1` : 900
